# experimental target: Sodium/glucose cotransporter 2 (Homo sapiens)
# Sequence (P31639 whole entry): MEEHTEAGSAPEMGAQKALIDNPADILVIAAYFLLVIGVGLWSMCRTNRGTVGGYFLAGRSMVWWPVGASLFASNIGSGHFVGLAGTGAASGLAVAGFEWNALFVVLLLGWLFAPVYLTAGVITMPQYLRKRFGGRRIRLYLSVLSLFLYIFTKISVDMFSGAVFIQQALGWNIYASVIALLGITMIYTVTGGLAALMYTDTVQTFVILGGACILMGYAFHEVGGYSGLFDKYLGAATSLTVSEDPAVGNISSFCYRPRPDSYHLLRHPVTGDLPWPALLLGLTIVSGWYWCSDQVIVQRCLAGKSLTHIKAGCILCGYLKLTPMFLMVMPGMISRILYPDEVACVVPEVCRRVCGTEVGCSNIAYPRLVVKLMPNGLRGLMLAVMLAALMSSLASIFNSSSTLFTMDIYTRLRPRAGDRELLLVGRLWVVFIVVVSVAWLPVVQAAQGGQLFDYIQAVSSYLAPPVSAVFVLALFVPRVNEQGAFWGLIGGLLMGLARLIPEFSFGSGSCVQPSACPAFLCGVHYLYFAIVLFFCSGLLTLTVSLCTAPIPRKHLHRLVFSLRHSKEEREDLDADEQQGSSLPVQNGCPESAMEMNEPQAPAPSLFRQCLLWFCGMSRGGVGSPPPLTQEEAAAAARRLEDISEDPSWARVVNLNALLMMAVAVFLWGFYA
# method description: Inhibition of human SGLT2 expressed in CHO cells assessed as inhibition of sodium-dependent methyl-alpha-D-[U-14C]glucopyranoside uptake after 2 hrs
pIC50: −log10 of the molar value.
reported endpoint: pIC50

Recorded results for 5 molecules are shown here.
* COc1ccc(Cc2cc([C@@H]3OC4(CC4)[C@@H](O)[C@H](O)[C@H]3O)ccc2C)cc1 | 8.10
* CCOc1ccc(Cc2cc([C@@H]3OC4(COC4)[C@@H](O)[C@H](O)[C@H]3O)ccc2Cl)cc1 | 7.49
* CCc1ccc(Cc2cc([C@@H]3O[C@H](CO)[C@@H](O)[C@@H](O)[C@H]3O)ccc2C)cc1 | 5.43
* CCc1ccc(Cc2cc([C@@H]3OC4(CS(=O)(=O)C4)[C@@H](O)[C@H](O)[C@H]3O)ccc2C)cc1 | 7.85
* COc1ccc(Cc2cc([C@@H]3O[C@H](CO)C[C@H](O)[C@H]3O)ccc2Cl)cc1 | 7.68

1: COc1ccc(Cc2cc([C@@H]3O[C@H](CO)[C@@H](O)[C@H](O)[C@H]3O)ccc2Cl)cc1
2: COc1ccc(Cc2cc([C@@H]3OC(CO)(CO)[C@@H](O)[C@H](O)[C@H]3O)ccc2Cl)cc1
Query: Which shows the larger pIC50 value: 1 or 2 ? Give the chosen item's label as your response.
Reply: 1
(1: 9.00, 2: 7.23)
